Target: human TREK-1 (Homo sapiens, UniProt O95069)
Construct: expressed in transfected cells
Experiment: TREK-1 Thallium (Tl+) flux assay, Method 1
Format: cell-based
Conditions: TREK-1 Thallium (Tl+) flux assay, Method 1
IC50 overview
Entry rule: numbers only, all in µM.

Recorded IC50, per entry:
Cc1cc(OCc2ccccc2)ccc1NC(=O)c1c(Cl)cnn1C1CCN(C(=O)C2CC2)CC1: 1.78
CCC(=O)N1CCC(n2ncc(Cl)c2C(=O)Nc2ccc(OCc3ccccc3)cc2C)CC1: 1.68
CCc1cc(-c2cnc(NC(=O)c3c(Cl)cnn3C3CCN(C(=O)OC(C)(C)C)CC3)c(C)c2)ccc1OC: 2.67
CC(=O)N[C@H]1CC[C@@H](n2ncc(Cl)c2C(=O)Nc2ccc(OCc3ccccc3)cc2C)CC1: 1.76
Cc1cc(OCc2ccccc2)ccc1NC(=O)c1c(Cl)cnn1CC1CN(C(=O)C2COCCO2)CCO1 (stereo not drawn): 3
Cc1cc(-c2ccc(-c3cccs3)cc2)cnc1NC(=O)c1c(Cl)cnn1C1CCN(C(=O)OC(C)(C)C)CC1: 2.78

Next:
Prompt: Could you tell me which IC50 is on file for CC(=O)N1CCC(n2ncc(Cl)c2C(=O)Nc2ncc(-c3ccc(CC(C)C)cc3)cc2C)CC1 ?
Completion: 4.17

* * *

Target: human TREK-1 (Homo sapiens)
Construct: expressed in transfected cells
Test: TREK-1 Thallium (Tl+) flux assay, Method 1
Type: cell-based
Details: TREK-1 Thallium (Tl+) flux assay; no *^12 (Method 2) mark on these rows
// classify: if (IC50 < 800 nM) TRUE else FALSE

Some solved cases for reference:
Cc1cc(C#Cc2cccs2)cnc1NC(=O)c1c(Cl)cnn1[C@H]1C[C@@H]2CN(C(=O)C3CC3)C[C@@H]2C1 [Compound 204]: TRUE
N#CCCCn1ncc(Cl)c1C(=O)Nc1c(F)cc(C#Cc2ccccc2)cc1F [Compound 253]: TRUE
O=C(Nc1ncc(C#Cc2ccccc2)cc1F)c1c(Cl)cnn1[C@H]1CCOC1 [Compound 275]: TRUE
Cc1cc(C#Cc2ccccc2)cnc1NC(=O)c1c(Cl)cnn1[C@H]1CCN(C(=O)OC(C)(C)C)C1 [Compound 298]: TRUE
CC(=O)N1CC[C@@H](Cn2ncc(Cl)c2C(=O)Nc2ncc(C#Cc3ccccc3)cc2C)[C@H](F)C1 [Compound 208]: TRUE

Prompt: Quick check: does O=C(Nc1ncc(C#Cc2ccccc2)cc1F)c1c(Cl)cnn1CC1CCOC1 (stereo not drawn) [Compound 217] have IC50 under 800 nM?
Completion: TRUE

Prompt: is_below(IC50, 800 nM) for CC(=O)N1CCC(C(C)n2ncc(Cl)c2C(=O)Nc2ncc(C#Cc3ccccc3)cc2C)CC1 (single isomer, unassigned) [Compound 197] ?
Completion: TRUE

Prompt: Please indicate whether the reported IC50 of Cc1cc(C#Cc2ccc(F)cc2)cnc1NC(=O)c1c(Cl)nn(C)c1-c1ccc2c(cnn2C)c1 [Compound 342] is strictly below 800 nM.
Completion: TRUE

Prompt: For this compound, is IC50 lower than 800 nM? Cc1cc(C#Cc2ccc(F)cc2)cnc1NC(=O)c1c(Cl)cnn1[C@H]1CCOC1 [Compound 322]
Completion: TRUE

Prompt: Answer whether the compound COCCn1ncc(Cl)c1C(=O)Nc1ncc(C#Cc2ccccc2)cc1C [Compound 369] has IC50 strictly less than 800 nM
Completion: FALSE

* * *

Target: human TREK-1 (Homo sapiens)
Construct: expressed in transfected cells
Experiment: TREK-1 Thallium (Tl+) flux assay, Method 1
Type: cell-based
Settings: TREK-1 Thallium (Tl+) flux assay; no *^12 (Method 2) mark on these rows
We begin with a simple list: items and their reported IC50.
Write it as a number; the unit nM goes unstated.

Completed entries (count: 5):
CC(=O)N1CC[C@@H](n2ncc(Cl)c2C(=O)Nc2ncc(C#Cc3ccccc3)cc2F)C1: 310
Cc1cc(OCc2ccccc2)ccc1NC(=O)c1c(Cl)cnn1[C@H]1CC[C@@H](NC(=O)C2CC2)CC1: 830
Cc1cc(-c2cnn(-c3ccc(F)cc3)c2)cnc1NC(=O)c1c(Cl)cnn1C1CCOCC1: 600
O=C(Nc1c(F)cc(C#Cc2ccccc2)cc1F)c1c(Cl)cnn1C[C@H]1COCCO1: 410
CC1(Cn2ncc(Cl)c2C(=O)Nc2ncc(C#Cc3ccccc3)cc2F)CCCO1 (stereo not shown): 490

Prompt: Given the molecule Cc1cc(C#Cc2ccc(F)cc2)cnc1NC(=O)c1c(Cl)cnn1C1CCN(C(=O)CC(C)C)C1 (stereo not shown) , what is its reported IC50?
Completion: 420

Prompt: Please give the measured IC50 for this molecule: Cc1cc(C#Cc2ccc(F)cc2)cnc1NC(=O)c1c(Cl)cnn1[C@H]1C[C@H](NC(=O)C2CC2)C1
Completion: 300

* * *

Biological target: human TREK-1 (Homo sapiens, UniProt O95069)
Construct: expressed in transfected cells
Experiment: TREK-1 Thallium (Tl+) flux assay, Method 1
Assay type: cell-based
Settings: TREK-1 Thallium (Tl+) flux assay, Method 1
Entries and their pIC50 values follow.
Scale: pIC50 equals -log10([C]), with [C] in mol/L.

Prompt: For human TREK-1 (Homo sapiens, UniProt O95069), provide pIC50 of Cc1cc(-c2cnn(-c3ccccc3F)c2)cnc1NC(=O)c1c(Cl)cnn1C1CCN(C(=O)OC(C)(C)C)CC1 [Compound 436] please.
Completion: 5.03

Prompt: Lookup: pIC50 / human TREK-1 (Homo sapiens, UniProt O95069) / Cc1cc(OCc2ccccc2)ccc1NC(=O)c1c(Cl)cnn1CC1CN(C(=O)C2CC2)CCO1 (stereo not drawn) [Compound 432]
Completion: 5.19

Prompt: Observed pIC50 on human TREK-1 (Homo sapiens, UniProt O95069) for CCC(=O)N[C@H]1CC[C@@H](n2ncc(Cl)c2C(=O)Nc2ccc(OCc3ccccc3)cc2C)CC1 [Compound 392] , please.
Completion: 5.90

* * *

The following compounds are shown together with reported IC50 values.
Target: human TREK-1 (Homo sapiens, UniProt O95069)
Construct: expressed in transfected cells
Sequence (O95069 1-426): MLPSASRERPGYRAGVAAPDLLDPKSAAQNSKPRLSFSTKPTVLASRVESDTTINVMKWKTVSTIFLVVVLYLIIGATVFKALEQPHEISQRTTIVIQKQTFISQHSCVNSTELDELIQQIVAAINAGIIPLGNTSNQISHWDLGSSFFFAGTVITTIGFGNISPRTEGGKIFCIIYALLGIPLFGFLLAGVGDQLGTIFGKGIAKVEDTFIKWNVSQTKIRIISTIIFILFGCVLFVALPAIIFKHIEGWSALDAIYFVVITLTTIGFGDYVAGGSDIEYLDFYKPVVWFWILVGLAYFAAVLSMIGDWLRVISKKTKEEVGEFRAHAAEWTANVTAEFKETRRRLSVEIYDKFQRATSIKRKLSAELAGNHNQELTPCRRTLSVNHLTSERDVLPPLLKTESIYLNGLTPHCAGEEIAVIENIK
Assay: TREK-1 Thallium (Tl+) flux assay, Method 1
Type: cell-based
Conditions: TREK-1 Thallium (Tl+) flux assay; values without footnote *12 are Method 1
# number only, unit nM dropped from output

Below are worked cases with known answers.
CC(=O)N1CCC(Cn2ncc(Cl)c2C(=O)Nc2ncc(C#Cc3cccs3)cc2C)CC1 [Compound 123]: 210
Cc1cc(C#Cc2ccccc2)cnc1NC(=O)c1c(Cl)cnn1CC1(C)CCN(C(=O)C2CC2C)CC1 (stereo not shown) [Compound 184]: 280

Prompt: Look at this compound and give its reported IC50. CCNC(=O)N1C[C@H]2C[C@H](n3ncc(Cl)c3C(=O)Nc3ncc(C#Cc4cccs4)cc3C)C[C@H]2C1 [Compound 74]
Completion: 160

Prompt: Requested read-out: IC50. Entry: CC(=O)N1CCC(Cn2ncc(Cl)c2C(=O)Nc2ncc(C#Cc3cccc(F)c3)cc2C)CC1 [Compound 150]
Completion: 240

Prompt: Which IC50 value belongs to N#CC1(Cn2ncc(Cl)c2C(=O)Nc2ncc(C#Cc3ccccc3)cc2F)CC1 [Compound 141] ?
Completion: 230

Prompt: For the compound shown here, Cc1cc(C#Cc2ccc(F)cc2)cnc1NC(=O)c1c(Cl)cnn1CC1(C#N)CCN(C(=O)C(C)C)CC1 [Compound 119] , give the reported IC50.
Completion: 200

Prompt: Reported IC50, compound Cc1cc(C#Cc2cccc(F)c2)cnc1NC(=O)c1c(Cl)cnn1CC1CCN(C(=O)C2COCCO2)CC1 (stereo not shown) [Compound 104] : ____
Completion: 190

* * *

Target: human TREK-1 (Homo sapiens)
Construct: expressed in transfected cells
Assay: TREK-1 Thallium (Tl+) flux assay, Method 1
Format: cell-based
Conditions: TREK-1 Thallium (Tl+) flux assay; no *^12 (Method 2) mark on these rows
pIC50: −log10 of the molar value.
Cut-off 6 on pIC50, inclusive. At or above means criterion met; below means criterion not met.

CCN1CC(n2ncc(Cl)c2C(=O)Nc2ncc(C#Cc3ccccc3)cc2C)C1: criterion not met
Cc1cc(C#Cc2ccccc2)cnc1NC(=O)c1c(Cl)cnn1CC1(C)CCN(C(=O)C2COCCO2)CC1 (centres unmarked): criterion met
Cc1cc(C#Cc2ccccc2)cnc1NC(=O)c1c(Cl)cnn1CC1(C)CCN(C(=O)C2CC2)CC1: criterion met
Cc1cc(C#Cc2ccccc2)cnc1NC(=O)c1c(Cl)cnn1C1CC(C#N)C1 (centres unmarked): criterion met
Cc1ccc(C#Cc2cnc(NC(=O)c3c(Cl)cnn3[C@H]3CCOC3)c(C)c2)cc1: criterion met

Prompt: Check if pIC50 >= 6 (inclusive). Item: CC(C)(C)OC(=O)N1CC[C@H](n2ncc(Cl)c2C(=O)Nc2ncc(C#Cc3ccccc3)cc2F)C1
Completion: criterion met
